system: Bovine liver DHFR (Bos taurus, UniProt P00376)
Sequence (P00376 1-187): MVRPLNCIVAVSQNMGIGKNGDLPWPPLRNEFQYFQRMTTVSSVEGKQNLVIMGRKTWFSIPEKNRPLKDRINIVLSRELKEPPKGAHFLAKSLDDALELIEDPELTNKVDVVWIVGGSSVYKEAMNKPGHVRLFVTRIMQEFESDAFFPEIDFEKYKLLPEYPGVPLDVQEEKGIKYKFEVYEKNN
test_method_notes: Spectrophotometric DHFR catalytic activity inhibition
Assay type: biochemical
recorded_metric: pIC50
Just so you know, pIC50 here is -log10 of the concentration in molar units; reply with that number alone.

## Task Fill blank: measured pIC50 of the compound CCc1nc(N)nc(N)c1-c1ccc(Cl)cc1 is ____.
## Result 5.85

Cited source for all entries: patent US4694007A
